- Test: Cytotoxicity against human HaCaT cells after 12 to 18 hrs by MTT assay
- Format: cell-based
- Conditions Used: read-out: TCID50
Property Measured: CC50 (µM)
Enter your answer as a number in µM; do not include the unit.

Given Cl.Nc1nc(-c2ccc(NC(=O)c3cc(Cl)cc(Cl)c3)cc2)c[nH]1 , state its recorded CC50.
387

###

- System: Pseudomonas aeruginosa
- Test: Antibacterial activity against Pseudomonas aeruginosa PA53 assessed as fold reduction in ceftazidime MIC at 60 uM after 16 hrs by microdilution method
- Assay type: functional
Property Measured: fold change (FC)
Reply briefly: the number, and no unit.

Cl.Nc1nc(-c2ccc(NC(=O)c3cccc(F)c3)cc2)c[nH]1 ... 1
Cl.Nc1nc(-c2ccc(NC(=O)c3cc(F)c(F)c(F)c3)cc2)c[nH]1 ... 1
Cl.Nc1nc(-c2ccc(NC(=O)c3ccccc3F)cc2)c[nH]1 ... 1

Given Cl.Nc1nc(-c2ccc(NC(=O)c3c(F)c(F)c(F)c(F)c3F)cc2)c[nH]1 , state its recorded fold change (FC).
1

Given Cl.Nc1nc(-c2ccc(NC(=O)c3ccc(Br)cc3)cc2)c[nH]1 , state its recorded fold change (FC).
1

Given Cl.Nc1nc(-c2ccc(NC(=O)c3ccc(Cl)cc3)cc2)c[nH]1 , state its recorded fold change (FC).
1

Given Cl.Nc1nc(-c2ccc(NC(=O)c3c(Cl)cc(Cl)cc3Cl)cc2)c[nH]1 , state its recorded fold change (FC).
1

Given Cl.Nc1nc(-c2ccc(NC(=O)c3cc(Cl)cc(Cl)c3)cc2)c[nH]1 , state its recorded fold change (FC).
16

Given Cl.Nc1nc(-c2ccc(NC(=O)c3ccc(F)cc3)cc2)c[nH]1 , state its recorded fold change (FC).
1

Given Cl.Nc1nc(-c2ccc(NC(=O)c3cccc(Br)c3)cc2)c[nH]1 , state its recorded fold change (FC).
16

###

- System: Acinetobacter baumannii
- Test: Antibacterial activity against Acinetobacter baumannii ATCC BAA-1605 assessed as fold reduction in meropenem MIC at 60 uM after 16 hrs by microdilution method
- Format: functional
Property Measured: fold change (FC)
Reply briefly: the number, and no unit.

Cl.Nc1ncc(-c2ccc(NC(=O)c3ccc(I)cc3)cc2)[nH]1 ... 2
Cl.Nc1nc(-c2ccc(NC(=O)c3ccccc3F)cc2)c[nH]1 ... 2
Nc1ncc(-c2ccc(NC(=O)c3cc(F)cc(F)c3)cc2)[nH]1 ... 16
Cl.Nc1nc(-c2ccc(NC(=O)c3ccc(Br)cc3)cc2)c[nH]1 ... 16
Cl.Nc1nc(-c2ccc(NC(=O)c3ccc(F)cc3)cc2)c[nH]1 ... 4

Given Cl.Nc1ncc(-c2ccc(NC(=O)c3ccc(Br)cc3F)cc2)[nH]1 , state its recorded fold change (FC).
2

Given Cl.Nc1nc(-c2ccc(NC(=O)c3ccc(Cl)cc3)cc2)c[nH]1 , state its recorded fold change (FC).
8

Given Cl.Nc1ncc(-c2ccc(NC(=O)c3cccc(I)c3)cc2)[nH]1 , state its recorded fold change (FC).
8

Given Cl.Nc1ncc(-c2ccc(NC(=O)c3cc(I)c(I)c(I)c3)cc2)[nH]1 , state its recorded fold change (FC).
2

Given Cl.Nc1ncc(-c2ccc(NC(=O)c3cccc(Cl)c3Cl)cc2)[nH]1 , state its recorded fold change (FC).
2

Given Cl.Nc1nc(-c2ccc(NC(=O)c3cccc(Br)c3)cc2)c[nH]1 , state its recorded fold change (FC).
16

Given Cl.Nc1nc(-c2ccc(NC(=O)c3cccc(F)c3)cc2)c[nH]1 , state its recorded fold change (FC).
4

Given Cl.Nc1ncc(-c2ccc(NC(=O)c3ccc(Cl)cc3Cl)cc2)[nH]1 , state its recorded fold change (FC).
4

Given Cl.Nc1nc(-c2ccc(NC(=O)c3c(F)c(F)c(F)c(F)c3F)cc2)c[nH]1 , state its recorded fold change (FC).
2

###

Entries and their fold change (FC) values follow.
- Test system: Pseudomonas aeruginosa
- Test: Antibacterial activity against Pseudomonas aeruginosa PA53 assessed as fold reduction in meropenem MIC at 60 uM after 16 hrs by microdilution method
- Format: functional
Reply briefly: the number, and no unit.

Cl.Nc1nc(-c2ccc(NC(=O)c3ccc(Cl)cc3)cc2)c[nH]1 ... 2
Cl.Nc1nc(-c2ccc(NC(=O)c3ccc(Br)cc3)cc2)c[nH]1 ... 2
Cl.Nc1ncc(-c2ccc(NC(=O)c3cc(Br)cc(Br)c3)cc2)[nH]1 ... 1
Cl.Nc1nc(-c2ccc(NC(=O)c3c(F)c(F)c(F)c(F)c3F)cc2)c[nH]1 ... 2
Cl.Nc1nc(-c2ccc(NC(=O)c3c(Cl)cc(Cl)cc3Cl)cc2)c[nH]1 ... 4
Cl.Nc1nc(-c2ccc(NC(=O)c3cccc(F)c3)cc2)c[nH]1 ... 2
Cl.Nc1nc(-c2ccc(NC(=O)c3cc(Cl)cc(Cl)c3)cc2)c[nH]1 ... 8
Cl.Nc1ncc(-c2ccc(NC(=O)c3cccc(Cl)c3Cl)cc2)[nH]1 ... 1

# input for lookup
Given Cl.Nc1ncc(-c2ccc(NC(=O)c3ccc(Cl)cc3Cl)cc2)[nH]1 , state its recorded fold change (FC).
1

###

- Tested on: Pseudomonas aeruginosa
- Test: Antibacterial activity against Pseudomonas aeruginosa PA53 assessed as fold reduction in meropenem MIC at 60 uM after 16 hrs by microdilution method
- Assay type: functional
Entries and their fold change (FC) values follow.
Reply briefly: the number, and no unit.

Known fold change (FC) results, listed for orientation:
Cl.Nc1ncc(-c2ccc(NC(=O)c3ccc(Br)cc3F)cc2)[nH]1 ... 1
Cl.Nc1nc(-c2ccc(NC(=O)c3ccccc3F)cc2)c[nH]1 ... 2

Given Cl.Nc1nc(-c2ccc(NC(=O)c3ccc(F)cc3)cc2)c[nH]1 , state its recorded fold change (FC).
2

Given Cl.Nc1ncc(-c2ccc(NC(=O)c3ccc(I)cc3)cc2)[nH]1 , state its recorded fold change (FC).
1

Given Cl.Nc1ncc(-c2ccc(NC(=O)c3cc(I)c(I)c(I)c3)cc2)[nH]1 , state its recorded fold change (FC).
1

Given Cl.Nc1ncc(-c2ccc(NC(=O)c3cccc(I)c3)cc2)[nH]1 , state its recorded fold change (FC).
1

Given Cl.Nc1nc(-c2ccc(NC(=O)c3cccc(Br)c3)cc2)c[nH]1 , state its recorded fold change (FC).
4

Given Cl.Nc1nc(-c2ccc(NC(=O)c3cc(F)c(F)c(F)c3)cc2)c[nH]1 , state its recorded fold change (FC).
2
